Where do these numbers come from? They come from patent US20210186879A1.

Test protocol: In vivo distribution of doxycycline in lung and blood serum of Wistar rats
Condition: doxycycline, 3 mg/kg i.v. single bolus, 30 min, ± SD
Endpoint label: Blood serum DOX (ng/mL)

Write down Blood serum DOX measured for item CC1c2cccc(O)c2C(O)=C2C(=O)C3(O)C(O)=C(C(N)=O)C(=O)C(N(C)C)C3C(O)C21.CCCCCCCCCCCCS(=O)(=O)O (stereo not shown)
61

1. CC1c2cccc(O)c2C(O)=C2C(=O)C3(O)C(O)=C(C(N)=O)C(=O)C(N(C)C)C3C(O)C21.CCCCCCCCCCCCCCOS(=O)(=O)O (stereo not shown)
2. CC1c2cccc(O)c2C(O)=C2C(=O)C3(O)C(O)=C(C(N)=O)C(=O)C(N(C)C)C3C(O)C21.CCCCCCCCCCCCCCCCS(=O)(=O)O (stereo not shown)
3. CC1c2cccc(O)c2C(O)=C2C(=O)C3(O)C(O)=C(C(N)=O)C(=O)C(N(C)C)C3C(O)C21.CCCCCCCCCCCCOS(=O)(=O)O (stereo not shown)
Your job: order these 3 records by Blood serum DOX, ascending. When ranking, write the labels in the order the request describes.
2, 1, 3
